- assay-remarks: Inotropic activity in electrically-stimulated guinea pig papillary muscle compound treated every 45 mins by chart recorder analysis
- Assay type: functional, tissue-based
- test-parameters: Cavia porcellus, 0.75 h
Listing: EC50 of selected compounds
observable: EC50

| smiles-representation | reported |
| --- | --- |
| CCCOC(=S)n1ccnc1 | > 100 µM |
| CC(=O)OCCSC(=S)n1ccnc1 | 77 µM |
| CSC(=S)n1ccnc1.Cl | 78 µM |
| CCCOC(=S)OCCCN(C)C | 37 µM |
| CCOC(=O)CCSC(=S)n1ccnc1 | > 100 µM |
| CCOC(=S)N1CCN(C)CC1 | > 100 µM |
| CC(C)CN(CC(C)C)C(=S)n1ccnc1 | 6.5 µM |
| CCOC(=S)OCCN(C)C | > 100 µM |
| CCCCOC(=S)n1ccnc1 | > 100 µM |
| Cl.S=C(OC1CCCCC1)n1ccnc1 | > 100 µM |
| COc1cc(CSC(=S)n2ccnc2)cc(OC)c1OC | 27 µM |
| CCCOC(=S)N1CCN(C)CC1 | > 100 µM |
| CC(C)OC(=O)n1ccnc1 | > 100 µM |
| CSC(=S)n1c(C)nc2ccccc21 | 56 µM |
| CCCCOC(=S)OCCCN(C)C | 4.3 µM |
| CCCCCCOC(=S)OCCCN(C)C | 5.9 µM |
| O=C(OC1CCCCC1)n1ccnc1 | > 100 µM |
| S=C(N1CCCCC1)n1ccnc1 | > 100 µM |
| CCOC(=S)OCCCN(C)C | > 100 µM |
| CC(C)OC(=S)n1ccnc1 | > 100 µM |
| CCCOC(=S)OCCN(C)C | 58 µM |
| CCOC(=S)n1ccnc1.Cl | > 100 µM |
| C[N+](C)(C)CCOC(=S)OCC[N+](C)(C)C | > 100 µM |
| Cc1nccn1C(=S)SCc1ccccc1 | > 100 µM |
| S=C(OC1CCCC1)n1ccnc1 | > 100 µM |
| CSC(=S)n1ccnc1C | > 100 µM |

---

- Tested on: Aorta
- assay-remarks: Vasodilating activity in potassium chloride-mediated precontracted guinea pig aorta compound treated every 45 mins by chart recorder analysis
- Assay type: functional, tissue-based
- test-parameters: Cavia porcellus, 0.75 h
pEC50: −log10 of the molar value.
observable: pEC50

| smiles-representation | study-system | relation | reported |
| --- | --- | --- | --- |
| CCCOC(=S)n1ccnc1 | Aorta | = | 4.52 |
| CCOC(=O)CCSC(=S)n1ccnc1 | Aorta | = | 4.80 |
| COc1cc(CSC(=S)n2ccnc2)cc(OC)c1OC | Aorta | = | 5.52 |
| Cc1nccn1C(=S)SCc1ccccc1 | Aorta | = | 5.47 |
| CSC(=S)n1c(C)nc2ccccc21 | Aorta | = | 4.64 |
| CC(C)OC(=S)n1ccnc1 | Aorta | = | 4.34 |
| S=C(N1CCCCC1)n1ccnc1 | Aorta | < | 4.00 |
| CCCCOC(=S)OCCCN(C)C | Aorta | < | 4.00 |
| CCCOC(=S)OCCN(C)C | Aorta | < | 4.00 |
| CCOC(=S)OCCN(C)C | Aorta | < | 4.00 |

The values you see were collected from ChEMBL document CHEMBL3593226.
